Origin of measurements: paper PMC7876056

test: Simulation of steady state exposure from the final population PK model (sensitive plot); format: in vivo, human; conditions: human, plasma, oral, 100 mg, 100 mg once daily for 12 weeks; empirical Bayes estimates; upper end of range; read-out: AUCss, 95th percentile of the population

Compound: COC(=O)NC(C(=O)N1CCCC1c1ncc(-c2ccc(-c3ccc(-c4ccc5nc(C6CCCN6C(=O)C(NC(=O)OC)C(C)C)[nH]c5c4)c4c3C3CCC4C3)cc2)[nH]1)C(C)C (stereo not shown)
Unit annotation: ng·h/mL
AUC: 17400

---

assay: Simulation of steady state exposure from the final population PK model (sensitive plot); format: in vivo, human; details: human, plasma, oral, 100 mg, 100 mg once daily for 12 weeks; empirical Bayes estimates; lower end of range; read-out: AUCss, 5th percentile of the population

Molecule: COC(=O)NC(C(=O)N1CCCC1c1ncc(-c2ccc(-c3ccc(-c4ccc5nc(C6CCCN6C(=O)C(NC(=O)OC)C(C)C)[nH]c5c4)c4c3C3CCC4C3)cc2)[nH]1)C(C)C (stereo not shown)
AUC, ng·h/mL: 3260

---

Assay: Simulation of steady state exposure from the final population PK model (sensitive plot)
Assay type: in vivo, human
Conditions: human, plasma, oral, 100 mg, 100 mg once daily for 12 weeks; lower end of range; read-out: Cmax,ss, 5th percentile of the population
Method: Individual empirical Bayes estimates PK parameters from the final model were used to predict the steady state exposure of yimitasvir. The simulated dosing regimen was yimitasvir 100 mg once daily for 12 consecutive weeks. […] The steady state exposure was calculated using PK parameters with incorporation of the isolated effect from the covariate and with other unaffected PK parameters fixed to the typical value.
Result type: Cmax (ng/mL)

Compound: COC(=O)NC(C(=O)N1CCCC1c1ncc(-c2ccc(-c3ccc(-c4ccc5nc(C6CCCN6C(=O)C(NC(=O)OC)C(C)C)[nH]c5c4)c4c3C3CCC4C3)cc2)[nH]1)C(C)C (stereo not shown)
Unit annotation: ng/mL
Observed value: 182

---

assay: Simulation of steady state exposure from the final population PK model (sensitive plot); format: in vivo, human; conditions: male, human, plasma, oral, 100 mg, 100 mg once daily for 12 weeks; typical subject: male, healthy volunteer, fasted 10 h, ALT=31.6 IU l^-1; read-out: Cmax,ss, base

Compound: COC(=O)NC(C(=O)N1CCCC1c1ncc(-c2ccc(-c3ccc(-c4ccc5nc(C6CCCN6C(=O)C(NC(=O)OC)C(C)C)[nH]c5c4)c4c3C3CCC4C3)cc2)[nH]1)C(C)C (stereo not shown)
Cmax / µg/mL: 0.54

---

assay: Population pharmacokinetic model (Phoenix NLME, FOCE-ELS) of yimitasvir in Chinese healthy volunteers and HCV infection patients; assay type: in vivo, human; conditions: human, plasma, oral; final model estimate (RSE%); typical healthy male volunteer, ALT 31.6 IU l^−1, fasted; read-out: V1/F (central volume of distribution)
Result type: Vd/F

Molecule: COC(=O)NC(C(=O)N1CCCC1c1ncc(-c2ccc(-c3ccc(-c4ccc5nc(C6CCCN6C(=O)C(NC(=O)OC)C(C)C)[nH]c5c4)c4c3C3CCC4C3)cc2)[nH]1)C(C)C (stereo not shown)
Observed value: 188 L

---

experiment: Simulation of steady state exposure from the final population PK model (sensitive plot); type: in vivo, human; settings: human, plasma, oral, 100 mg, 100 mg once daily for 12 weeks; upper end of range; read-out: Cmax,ss, 95th percentile of the population

Compound: COC(=O)NC(C(=O)N1CCCC1c1ncc(-c2ccc(-c3ccc(-c4ccc5nc(C6CCCN6C(=O)C(NC(=O)OC)C(C)C)[nH]c5c4)c4c3C3CCC4C3)cc2)[nH]1)C(C)C (stereo not shown)
Cmax, ng/mL: 1270
